B1: tRNA (parent)
chain: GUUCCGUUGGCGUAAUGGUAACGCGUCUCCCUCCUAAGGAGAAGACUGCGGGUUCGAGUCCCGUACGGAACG

Variants of: B1
test.protocol: yeast fitness relative to wild type (ratio to wild type); higher = fitter; tRNA-Arg(CCU), competitive growth, 37 C, YPD
This sample holds only a part of the variants without activity.
# label = criterion met if yeast fitness >= 0.7 else criterion not met

In: State whether the measured yeast fitness reaches 0.7, counting equality as reaching it, for G18C C31A A43G G58C A65G
Out: criterion not met

In: State whether the measured yeast fitness reaches 0.7, counting equality as reaching it, for C5A A14C A45G
Out: criterion not met

In: State whether the measured yeast fitness reaches 0.7, counting equality as reaching it, for G18A C24U U47G
Out: criterion not met

In: State whether the measured yeast fitness reaches 0.7, counting equality as reaching it, for U7A C30U C33U C46U G68U
Out: criterion not met

In: State whether the measured yeast fitness reaches 0.7, counting equality as reaching it, for C46G A69U
Out: criterion met

In: State whether the measured yeast fitness reaches 0.7, counting equality as reaching it, for A14G A42U A45C U59A
Out: criterion not met

In: State whether the measured yeast fitness reaches 0.7, counting equality as reaching it, for G10C U16G C31A U32G A57U
Out: criterion not met

In: State whether the measured yeast fitness reaches 0.7, counting equality as reaching it, for U3A U7G A14U G25A G41C C46U C61A
Out: criterion not met

In: State whether the measured yeast fitness reaches 0.7, counting equality as reaching it, for A14C U28A U53G
Out: criterion not met

In: State whether the measured yeast fitness reaches 0.7, counting equality as reaching it, for U3A C34U C49A G52A
Out: criterion not met

In: State whether the measured yeast fitness reaches 0.7, counting equality as reaching it, for A20C
Out: criterion met

In: State whether the measured yeast fitness reaches 0.7, counting equality as reaching it, for C22G C29G G63A
Out: criterion not met

In: State whether the measured yeast fitness reaches 0.7, counting equality as reaching it, for G17C A37G A40C
Out: criterion not met

In: State whether the measured yeast fitness reaches 0.7, counting equality as reaching it, for C4G G12A G52A
Out: criterion not met

In: State whether the measured yeast fitness reaches 0.7, counting equality as reaching it, for A21C A43G G58A
Out: criterion met

In: State whether the measured yeast fitness reaches 0.7, counting equality as reaching it, for C11U A40U G67A
Out: criterion not met

In: State whether the measured yeast fitness reaches 0.7, counting equality as reaching it, for A21G U35G A37G A42G
Out: criterion not met

In: State whether the measured yeast fitness reaches 0.7, counting equality as reaching it, for C11U A36G A70G
Out: criterion not met

In: State whether the measured yeast fitness reaches 0.7, counting equality as reaching it, for G25C C27G
Out: criterion not met

In: State whether the measured yeast fitness reaches 0.7, counting equality as reaching it, for A45U G50A C55G A70U
Out: criterion not met

In: State whether the measured yeast fitness reaches 0.7, counting equality as reaching it, for G18A C34G C55G A65U
Out: criterion not met

In: State whether the measured yeast fitness reaches 0.7, counting equality as reaching it, for C30U U53G A69U
Out: criterion not met

In: State whether the measured yeast fitness reaches 0.7, counting equality as reaching it, for G23A C29A G48A C55A
Out: criterion not met

In: State whether the measured yeast fitness reaches 0.7, counting equality as reaching it, for G9A C33U A36U U59A
Out: criterion not met

In: State whether the measured yeast fitness reaches 0.7, counting equality as reaching it, for A20G C34G G41C
Out: criterion not met

In: State whether the measured yeast fitness reaches 0.7, counting equality as reaching it, for A20C C60G C62U
Out: criterion not met

In: State whether the measured yeast fitness reaches 0.7, counting equality as reaching it, for A20U U35A C46G C49U
Out: criterion not met

In: State whether the measured yeast fitness reaches 0.7, counting equality as reaching it, for G48C C66A
Out: criterion not met

In: State whether the measured yeast fitness reaches 0.7, counting equality as reaching it, for U16A G39A G48A G63A A65C
Out: criterion not met

In: State whether the measured yeast fitness reaches 0.7, counting equality as reaching it, for C31U G48C
Out: criterion met

In: State whether the measured yeast fitness reaches 0.7, counting equality as reaching it, for A20C G44C C61U
Out: criterion not met

In: State whether the measured yeast fitness reaches 0.7, counting equality as reaching it, for G6A U26C G44C
Out: criterion not met

In: State whether the measured yeast fitness reaches 0.7, counting equality as reaching it, for C11A A14G U19G A43C U53A
Out: criterion not met

In: State whether the measured yeast fitness reaches 0.7, counting equality as reaching it, for C22G A65C
Out: criterion met

In: State whether the measured yeast fitness reaches 0.7, counting equality as reaching it, for U13A G23C C27G U53C C61A G68A
Out: criterion not met

In: State whether the measured yeast fitness reaches 0.7, counting equality as reaching it, for G9A C31U A37C G63A
Out: criterion not met

In: State whether the measured yeast fitness reaches 0.7, counting equality as reaching it, for C11G U13G A69C
Out: criterion not met

In: State whether the measured yeast fitness reaches 0.7, counting equality as reaching it, for C5A A40U C60U C61G
Out: criterion not met

In: State whether the measured yeast fitness reaches 0.7, counting equality as reaching it, for C4U G10C G23A U26C U32C A43G U53A
Out: criterion not met

In: State whether the measured yeast fitness reaches 0.7, counting equality as reaching it, for U7G G56A
Out: criterion met

In: State whether the measured yeast fitness reaches 0.7, counting equality as reaching it, for U16C U26A G38C
Out: criterion not met

In: State whether the measured yeast fitness reaches 0.7, counting equality as reaching it, for A20U A45C A65C
Out: criterion not met

In: State whether the measured yeast fitness reaches 0.7, counting equality as reaching it, for C11U A20C C29A C31U U32C A65C
Out: criterion not met

In: State whether the measured yeast fitness reaches 0.7, counting equality as reaching it, for A20C G44A
Out: criterion met

In: State whether the measured yeast fitness reaches 0.7, counting equality as reaching it, for G12A C22G C27A
Out: criterion not met

In: State whether the measured yeast fitness reaches 0.7, counting equality as reaching it, for A21G U64A
Out: criterion met

In: State whether the measured yeast fitness reaches 0.7, counting equality as reaching it, for A21G G25A G39C C62U
Out: criterion not met

In: State whether the measured yeast fitness reaches 0.7, counting equality as reaching it, for A37G C55A G67A
Out: criterion not met

In: State whether the measured yeast fitness reaches 0.7, counting equality as reaching it, for C34G G52C
Out: criterion not met

In: State whether the measured yeast fitness reaches 0.7, counting equality as reaching it, for U35C G58A C60U
Out: criterion not met

In: State whether the measured yeast fitness reaches 0.7, counting equality as reaching it, for C11U C49U A70C
Out: criterion not met

In: State whether the measured yeast fitness reaches 0.7, counting equality as reaching it, for U13A C61G G68C
Out: criterion not met

In: State whether the measured yeast fitness reaches 0.7, counting equality as reaching it, for U26A C49G G56U
Out: criterion not met

In: State whether the measured yeast fitness reaches 0.7, counting equality as reaching it, for U19A C27A C31A A57C
Out: criterion met

In: State whether the measured yeast fitness reaches 0.7, counting equality as reaching it, for C22A A43C G56A
Out: criterion met

In: State whether the measured yeast fitness reaches 0.7, counting equality as reaching it, for G10C C22A C24G U26C U53A
Out: criterion not met

In: State whether the measured yeast fitness reaches 0.7, counting equality as reaching it, for U19A C31G G38C A40C G56A
Out: criterion not met

In: State whether the measured yeast fitness reaches 0.7, counting equality as reaching it, for C4A U7A U35C
Out: criterion not met

In: State whether the measured yeast fitness reaches 0.7, counting equality as reaching it, for C4G U7C C27A U59G
Out: criterion not met

In: State whether the measured yeast fitness reaches 0.7, counting equality as reaching it, for C11A C46U U53A G63C
Out: criterion not met

In: State whether the measured yeast fitness reaches 0.7, counting equality as reaching it, for G38A C62G
Out: criterion not met

In: State whether the measured yeast fitness reaches 0.7, counting equality as reaching it, for A37U C61A G67C
Out: criterion not met

In: State whether the measured yeast fitness reaches 0.7, counting equality as reaching it, for A14U G25A C61U
Out: criterion not met

In: State whether the measured yeast fitness reaches 0.7, counting equality as reaching it, for G38C C55A
Out: criterion not met

In: State whether the measured yeast fitness reaches 0.7, counting equality as reaching it, for U16C G52A G56C
Out: criterion not met

In: State whether the measured yeast fitness reaches 0.7, counting equality as reaching it, for C27A U59G
Out: criterion met

In: State whether the measured yeast fitness reaches 0.7, counting equality as reaching it, for U8A A40G A42U A45U U59G
Out: criterion not met

In: State whether the measured yeast fitness reaches 0.7, counting equality as reaching it, for A15G A20G A21C C31U
Out: criterion not met

In: State whether the measured yeast fitness reaches 0.7, counting equality as reaching it, for U16C C29G C60U
Out: criterion not met

In: State whether the measured yeast fitness reaches 0.7, counting equality as reaching it, for C5U A45G C62U
Out: criterion met

In: State whether the measured yeast fitness reaches 0.7, counting equality as reaching it, for A40G A65C
Out: criterion met

In: State whether the measured yeast fitness reaches 0.7, counting equality as reaching it, for G6A A42G C61G C66A
Out: criterion not met

In: State whether the measured yeast fitness reaches 0.7, counting equality as reaching it, for U8C U26C A37U A57G
Out: criterion not met

In: State whether the measured yeast fitness reaches 0.7, counting equality as reaching it, for U26G C27U C49U C66U
Out: criterion not met

In: State whether the measured yeast fitness reaches 0.7, counting equality as reaching it, for C33A A43G A45C C60A
Out: criterion not met

In: State whether the measured yeast fitness reaches 0.7, counting equality as reaching it, for A15U C22U A57C
Out: criterion not met

In: State whether the measured yeast fitness reaches 0.7, counting equality as reaching it, for C4A A21C G39C C49G
Out: criterion not met

In: State whether the measured yeast fitness reaches 0.7, counting equality as reaching it, for C5U G18A A40U U47C
Out: criterion not met

In: State whether the measured yeast fitness reaches 0.7, counting equality as reaching it, for C30U U54A G68C
Out: criterion not met

In: State whether the measured yeast fitness reaches 0.7, counting equality as reaching it, for A15G C34U G41C C49U
Out: criterion not met

In: State whether the measured yeast fitness reaches 0.7, counting equality as reaching it, for C27A A37C G68A
Out: criterion not met

In: State whether the measured yeast fitness reaches 0.7, counting equality as reaching it, for C11U U32G C62A
Out: criterion not met

In: State whether the measured yeast fitness reaches 0.7, counting equality as reaching it, for G9A C31U A40C C66A
Out: criterion not met

In: State whether the measured yeast fitness reaches 0.7, counting equality as reaching it, for C5G U19C U32C
Out: criterion met

In: State whether the measured yeast fitness reaches 0.7, counting equality as reaching it, for U7A U64C
Out: criterion met

Values compiled from the RNAGym collection of RNA variant scans (doi:10.1126/science.aae0568).
